target: δ-opioid receptor (Homo sapiens, UniProt P41143)
Sequence (P41143 whole entry): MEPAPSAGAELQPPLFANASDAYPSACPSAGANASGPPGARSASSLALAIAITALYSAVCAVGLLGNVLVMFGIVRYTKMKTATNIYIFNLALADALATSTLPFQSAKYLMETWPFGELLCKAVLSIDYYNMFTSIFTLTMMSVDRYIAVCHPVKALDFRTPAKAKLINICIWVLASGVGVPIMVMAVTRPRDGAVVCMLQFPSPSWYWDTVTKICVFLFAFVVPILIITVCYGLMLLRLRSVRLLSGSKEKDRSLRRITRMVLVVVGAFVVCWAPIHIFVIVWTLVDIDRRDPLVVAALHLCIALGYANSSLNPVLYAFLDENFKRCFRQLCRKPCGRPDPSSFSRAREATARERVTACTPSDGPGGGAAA
pKi: −log10 of the molar value.
PROPERTY LABEL: pKi

[
  {
    "MOLECULE": "CC(C)(C)c1cc(C(C)(C)C)c(NC(=O)c2c[nH]c3ccccc3c2=O)cc1O [ivacaftor]",
    "MEASURED VALUE": 5.59
  }
]

* * *

molecular target: serotonin transporter (Homo sapiens, UniProt P31645); assay: Secondary radioligand binding assay; conditions: low-affinity binding
Sequence (P31645 whole entry): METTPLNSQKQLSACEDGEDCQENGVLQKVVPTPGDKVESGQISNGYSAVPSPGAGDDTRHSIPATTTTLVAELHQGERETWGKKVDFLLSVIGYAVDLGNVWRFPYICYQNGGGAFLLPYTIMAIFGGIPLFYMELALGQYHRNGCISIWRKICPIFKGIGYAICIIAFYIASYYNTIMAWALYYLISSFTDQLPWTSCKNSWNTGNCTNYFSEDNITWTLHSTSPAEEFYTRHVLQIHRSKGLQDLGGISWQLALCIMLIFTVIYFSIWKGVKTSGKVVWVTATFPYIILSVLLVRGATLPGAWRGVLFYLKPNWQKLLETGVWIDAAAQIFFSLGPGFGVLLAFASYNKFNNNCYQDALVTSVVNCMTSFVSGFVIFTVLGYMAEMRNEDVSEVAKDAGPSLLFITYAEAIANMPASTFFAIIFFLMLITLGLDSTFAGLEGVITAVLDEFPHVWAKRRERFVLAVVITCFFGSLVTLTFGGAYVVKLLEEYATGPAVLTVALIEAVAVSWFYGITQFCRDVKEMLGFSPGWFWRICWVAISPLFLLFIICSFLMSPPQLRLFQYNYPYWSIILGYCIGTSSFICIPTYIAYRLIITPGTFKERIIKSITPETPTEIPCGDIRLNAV
pKi: −log10 of the molar value.
PROPERTY LABEL: pKi

[
  {
    "MOLECULE": "CC(C)(C)c1cc(C(C)(C)C(=O)O)c(O)cc1NC(=O)c1c[nH]c2ccccc2c1=O [iva-M6, ivacaftorcarboxylate]",
    "MEASURED VALUE": "< 5.00"
  },
  {
    "MOLECULE": "CC(C)(C)c1cc(C(C)(C)CO)c(O)cc1NC(=O)c1c[nH]c2ccccc2c1=O [iva-M1, hydroxymethylivacaftor]",
    "MEASURED VALUE": "< 5.00"
  }
]

* * *

molecular target: β3-adrenergic receptor (Homo sapiens)
Sequence (P13945 whole entry, species assumed): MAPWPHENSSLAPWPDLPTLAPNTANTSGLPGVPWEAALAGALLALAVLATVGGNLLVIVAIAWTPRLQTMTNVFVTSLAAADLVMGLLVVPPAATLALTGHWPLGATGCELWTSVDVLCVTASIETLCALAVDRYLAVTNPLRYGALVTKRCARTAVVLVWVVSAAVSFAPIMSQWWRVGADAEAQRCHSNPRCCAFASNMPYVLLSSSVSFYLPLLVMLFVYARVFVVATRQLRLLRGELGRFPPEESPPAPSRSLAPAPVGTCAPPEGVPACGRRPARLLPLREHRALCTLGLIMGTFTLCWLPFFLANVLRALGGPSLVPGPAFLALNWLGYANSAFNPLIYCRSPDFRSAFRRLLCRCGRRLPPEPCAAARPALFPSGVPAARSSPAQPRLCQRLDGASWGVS
PROPERTY LABEL: Ki (µM)

[
  {
    "COMPOUND": "CC(C)(C)c1cc(C(C)(C)C)c(NC(=O)c2c[nH]c3ccccc3c2=O)cc1O [ivacaftor]",
    "SYSTEM UNDER TEST": "β3-adrenergic receptor (Homo sapiens)",
    "MEASURED VALUE": 1.93
  }
]

* * *

target: α1B-adrenergic receptor (Homo sapiens)
Sequence (P35368 whole entry, species assumed): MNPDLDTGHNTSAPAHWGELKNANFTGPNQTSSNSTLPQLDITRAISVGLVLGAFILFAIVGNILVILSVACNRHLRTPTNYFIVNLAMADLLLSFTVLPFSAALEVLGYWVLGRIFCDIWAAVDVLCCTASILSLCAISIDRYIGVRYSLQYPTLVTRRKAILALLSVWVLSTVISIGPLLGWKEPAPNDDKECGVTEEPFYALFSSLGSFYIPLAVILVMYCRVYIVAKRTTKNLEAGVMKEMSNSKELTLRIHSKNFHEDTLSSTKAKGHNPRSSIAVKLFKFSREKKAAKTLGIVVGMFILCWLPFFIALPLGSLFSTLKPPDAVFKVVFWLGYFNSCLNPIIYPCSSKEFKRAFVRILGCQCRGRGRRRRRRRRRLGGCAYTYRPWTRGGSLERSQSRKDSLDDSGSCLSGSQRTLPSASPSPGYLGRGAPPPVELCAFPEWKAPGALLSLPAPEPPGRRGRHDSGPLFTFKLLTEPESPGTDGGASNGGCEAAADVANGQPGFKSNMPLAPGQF

[
  {
    "CHEMICAL STRING": "Cc1ccc(NC(=O)C2(c3ccc4c(c3)OC(F)(F)O4)CC2)nc1-c1cccc(C(=O)O)c1",
    "SYSTEM UNDER TEST": "α1B-adrenergic receptor (Homo sapiens)",
    "Ki": "> 10 µM"
  }
]

* * *

Measured Ki values are reported for all entries that follow.
Sequence of the target: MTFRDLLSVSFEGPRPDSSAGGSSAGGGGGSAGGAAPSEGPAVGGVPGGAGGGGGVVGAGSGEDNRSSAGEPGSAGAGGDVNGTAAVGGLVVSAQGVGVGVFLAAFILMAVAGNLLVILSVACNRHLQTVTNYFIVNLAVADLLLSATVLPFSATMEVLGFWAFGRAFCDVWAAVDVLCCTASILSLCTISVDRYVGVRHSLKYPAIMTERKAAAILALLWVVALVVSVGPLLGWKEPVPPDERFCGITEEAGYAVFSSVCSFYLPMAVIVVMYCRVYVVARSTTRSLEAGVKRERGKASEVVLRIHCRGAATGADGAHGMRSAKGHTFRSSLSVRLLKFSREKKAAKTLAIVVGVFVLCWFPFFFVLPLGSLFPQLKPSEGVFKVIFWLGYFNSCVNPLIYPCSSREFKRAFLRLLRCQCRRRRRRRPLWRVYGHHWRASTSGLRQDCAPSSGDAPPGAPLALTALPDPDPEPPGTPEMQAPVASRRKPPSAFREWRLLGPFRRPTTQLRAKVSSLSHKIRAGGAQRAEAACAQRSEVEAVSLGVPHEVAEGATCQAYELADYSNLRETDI
PROPERTY LABEL: Ki (µM)

[
  {
    "COMPOUND": "CC(C)(CO)c1cc2cc(NC(=O)C3(c4ccc5c(c4)OC(F)(F)O5)CC3)c(F)cc2n1C[C@@H](O)CO [tezacaftor]",
    "MEASURED VALUE": 5.45
  },
  {
    "COMPOUND": "Cc1ccc(NC(=O)C2(c3ccc4c(c3)OC(F)(F)O4)CC2)nc1-c1cccc(C(=O)O)c1 [lumacaftor]",
    "MEASURED VALUE": 4.84
  }
]

Source listed as paper PMC5850045.
